test system: Escherichia coli expressing NDM-1 (CLB30005, CLB30016); format: cell-based; conditions: NDM-1 strain, with imipenem 1 μg/ml, 95% inhibition of bacterial growth
The compounds listed here are annotated with their Escherichia coli MITC95.

ENTRY SMILES: CC1(NS(=O)(=O)c2ccc(-c3ccc(N)nc3)c(-c3nn[nH]n3)c2S(N)(=O)=O)CNC1.Cl.Cl
Escherichia coli MITC95, µM: 0.3906
--
ENTRY SMILES: C[C@@H](CCN)NS(=O)(=O)c1ccc(-c2ccc(N)nc2)c(-c2nn[nH]n2)c1S(N)(=O)=O
Escherichia coli MITC95, µM: 0.7813
--
ENTRY SMILES: C[C@H](CCN)NS(=O)(=O)c1ccc(-c2ccc(N)nc2)c(-c2nn[nH]n2)c1S(N)(=O)=O
Escherichia coli MITC95, µM: 1.563
--
ENTRY SMILES: NCCN1CC[C@@H](NS(=O)(=O)c2ccc(-c3ccc(N)nc3)c(-c3nn[nH]n3)c2S(N)(=O)=O)C1
Escherichia coli MITC95, µM: 1.563
--
ENTRY SMILES: Cl.Cl.NCCCNS(=O)(=O)c1ccc(-c2ccc(N)nc2)c(-c2nn[nH]n2)c1S(N)(=O)=O
Escherichia coli MITC95, µM: 0.09766

Taken from patent US10221163B2.
